Can you tell me Mean fluorescence intensity for the items I'm about to list?
# Target of assay: T1, full length human PD-1 on cells (human, UniProt Q15116 25-288)
# T1 construct: Also used here for PD-1 on human T cells/PBMC; also called CHO-K1-hPD-1; hPD-1
# T1 sequence (Q15116 25-288 limits assumed): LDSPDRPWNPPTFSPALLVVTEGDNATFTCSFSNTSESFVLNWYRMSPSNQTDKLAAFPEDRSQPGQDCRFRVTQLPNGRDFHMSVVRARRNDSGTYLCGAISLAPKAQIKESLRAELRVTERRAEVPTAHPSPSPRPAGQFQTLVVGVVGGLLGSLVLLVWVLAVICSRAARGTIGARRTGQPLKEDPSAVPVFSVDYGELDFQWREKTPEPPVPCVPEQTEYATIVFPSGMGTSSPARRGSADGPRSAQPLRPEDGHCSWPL
# Assay details: flow cytometry, CHO-K1-hPD-1 cells; antibody 10 nM
The response must contain the number and no unit.

Fill in Mean fluorescence intensity for record chimeric anti-PD-1 antibody 226C3A7 (antibody, V domains shown, Purified from hybridoma of Harbour H2L2 mice: human variable regions, rat constant regions) VH: QVQLQQSGPGLVNPSQTLSLTCAISGDSVSSNSGAWNWIRQSPSRGLEWLGRTYYRSKWYNDYGISVQSRITINPDTSKNHFSLQLNSVTPEDTAVYYCARDPYYYGSGSYFDYWGQGTLVTVSS VL: EIVMTQSPATLSVSPGERVTLSCRASLSVNSNLAWYQQKPGQAPRLLIYDTSTRATGVPARFSGSGSGTEFTLTISSLQSEDFAVYYCQQYHYWPLTFGGGTKVEIK
203

Fill in Mean fluorescence intensity for record chimeric anti-PD-1 antibody 32B5C7 (antibody, V domains shown, Purified from hybridoma of Harbour H2L2 mice: human variable regions, rat constant regions) VH: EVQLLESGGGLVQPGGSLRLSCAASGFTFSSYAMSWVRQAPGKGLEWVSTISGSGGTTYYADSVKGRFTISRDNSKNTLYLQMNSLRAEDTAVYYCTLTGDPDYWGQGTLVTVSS VL: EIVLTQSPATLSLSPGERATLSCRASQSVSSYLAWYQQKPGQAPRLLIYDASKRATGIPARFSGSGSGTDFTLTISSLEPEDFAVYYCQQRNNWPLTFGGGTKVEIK
156

Fill in Mean fluorescence intensity for record chimeric anti-PD-1 antibody 21G8F11 (antibody, V domains shown, Purified from hybridoma of Harbour H2L2 mice: human variable regions, rat constant regions) VH: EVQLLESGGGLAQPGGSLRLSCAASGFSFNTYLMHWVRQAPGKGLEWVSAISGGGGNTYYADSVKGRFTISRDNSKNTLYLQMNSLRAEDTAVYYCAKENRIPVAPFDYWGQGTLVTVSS VL: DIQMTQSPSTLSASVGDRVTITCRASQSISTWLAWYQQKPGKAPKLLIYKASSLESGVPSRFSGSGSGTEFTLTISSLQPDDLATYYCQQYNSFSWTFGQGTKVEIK
696

Fill in Mean fluorescence intensity for record chimeric anti-PD-1 antibody 76G5B3 (antibody, V domains shown, Purified from hybridoma of Harbour H2L2 mice: human variable regions, rat constant regions) VH: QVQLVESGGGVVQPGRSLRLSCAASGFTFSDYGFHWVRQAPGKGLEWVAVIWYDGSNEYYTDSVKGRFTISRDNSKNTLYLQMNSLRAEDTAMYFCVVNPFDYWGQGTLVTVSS VL: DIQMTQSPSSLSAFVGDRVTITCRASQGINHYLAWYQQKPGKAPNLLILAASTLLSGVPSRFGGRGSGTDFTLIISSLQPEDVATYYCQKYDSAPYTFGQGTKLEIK
435
